test system: U2OS PTBP1-KO; assay: maximum observed lethal fraction; higher = more cell death; conditions: 0.0316 µM;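 note: FLICK assay: SYTOX Green fluorescence of dead cells tracked over time after drugging in 96-well plates, with total cell counts taken from Triton X-100 lysed wells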
Answer each item with its documented maximum observed lethal fraction.

[ask] Quick one: maximum observed lethal fraction of CC(C)[C@]12O[C@H]1[C@@H]1O[C@]13[C@]1(O[C@H]1C[C@H]1C4=C(CC[C@@]13C)C(=O)OC4)[C@@H]2O [Triptolide] ?
[reply] 0.24

[ask] Quick one: maximum observed lethal fraction of NC1(C(=O)N[C@@H](CCO)c2ccc(Cl)cc2)CCN(c2nc[nH]c3nccc2-3)CC1 ?
[reply] 0.0937

[ask] Quick one: maximum observed lethal fraction of Cc1cc(Nc2ccc(NC(=O)c3ccc(Nc4ccnc5ccccc45)cc3)cc2)nc(N)n1 ?
[reply] 0.0577

[ask] Quick one: maximum observed lethal fraction of CC(C)C[C@@H](C=O)NC(=O)[C@H](CC(C)C)NC(=O)[C@H](CC(C)C)NC(=O)OCc1ccccc1 ?
[reply] 0.0706

[ask] Quick one: maximum observed lethal fraction of COc1cc([C@@H]2c3cc4c(cc3[C@@H](O[C@@H]3O[C@@H]5CO[C@@H](C)O[C@H]5[C@H](O)[C@H]3O)[C@H]3COC(=O)[C@H]23)OCO4)cc(OC)c1O [Etoposide] ?
[reply] 0.0736

---

test system: U2OS BAX/BAK1 DKO; assay: maximum observed lethal fraction; higher = more cell death; conditions: 100 µM
measured parameter: maximum observed lethal fraction
Reply with just the number.

[ask] Quick one: maximum observed lethal fraction of O=C(O)C1(C(=O)O)CCC1.[NH2-].[NH2-].[Pt+2] ?
[reply] 0.0722

[ask] Quick one: maximum observed lethal fraction of CNCc1ccc(-c2[nH]c3cc(F)cc4c3c2CCNC4=O)cc1 ?
[reply] 0.178

[ask] Quick one: maximum observed lethal fraction of NC(=O)c1cccc2cn(-c3ccc([C@@H]4CCCNC4)cc3)nc12 ?
[reply] 0.936

[ask] Quick one: maximum observed lethal fraction of O=C(CCCCCCC(=O)Nc1ccccc1)NO ?
[reply] 0.084

[ask] Quick one: maximum observed lethal fraction of CC1(C)CCC(CN2CCN(c3ccc(C(=O)NS(=O)(=O)c4ccc(NCC5CCOCC5)c([N+](=O)[O-])c4)c(Oc4cnc5[nH]ccc5c4)c3)CC2)=C(c2ccc(Cl)cc2)C1 ?
[reply] 0.0728

[ask] Quick one: maximum observed lethal fraction of COc1ccc(C[C@H]2NC[C@H](O)[C@H]2OC(C)=O)cc1 ?
[reply] 0.109

[ask] Quick one: maximum observed lethal fraction of CC1(C)CCC(c2ccc(Cl)cc2)=C(CN2CCN(c3ccc(C(=O)NS(=O)(=O)c4ccc(N[C@H](CCN5CCOCC5)CSc5ccccc5)c(S(=O)(=O)C(F)(F)F)c4)cc3)CC2)C1 ?
[reply] 0.43

[ask] Quick one: maximum observed lethal fraction of Nc1ncnc2c1ncn2[C@@H]1O[C@H](CO)C[C@H]1O [Cordycepin] ?
[reply] 0.072

---

system: U2OS BAX/BAK1 DKO; test: maximum observed lethal fraction; higher = more cell death; conditions: 1 µM
Could you label it condition met if measured maximum observed lethal fraction is 0.08 or higher, and condition not met otherwise?

[ask] Would you say Nc1ccc(-c2ccc3ncc4ccc(=O)n(-c5cccc(C(F)(F)F)c5)c4c3c2)cn1 [Torin2] shows maximum observed lethal fraction at minimum 0.08?
[reply] condition met

[ask] Would you say CN(C)C/C=C/C(=O)Nc1ccc(C(=O)N2CCC[C@@H](Nc3ncc(Cl)c(-c4c[nH]c5ccccc45)n3)C2)cc1 [THZ531] shows maximum observed lethal fraction at minimum 0.08?
[reply] condition met

[ask] Would you say C/C=C(/C)C(=O)O[C@H]1C(C)=C2[C@H]([C@@H]1OC(=O)CCCCCCC)[C@@](C)(OC(C)=O)C[C@H](OC(=O)CCC)[C@@]1(O)[C@H]2OC(=O)[C@@]1(C)O [Thapsigargin] shows maximum observed lethal fraction at minimum 0.08?
[reply] condition met

[ask] Would you say CC(C)C[C@@H](C=O)NC(=O)[C@H](CC(C)C)NC(=O)[C@H](CC(C)C)NC(=O)OCc1ccccc1 [MG132] shows maximum observed lethal fraction at minimum 0.08?
[reply] condition met

[ask] Would you say Nc1ncnc2c1ncn2[C@@H]1O[C@H](CO)C[C@H]1O [Cordycepin] shows maximum observed lethal fraction at minimum 0.08?
[reply] condition not met

[ask] Would you say CN(C)C/C=C/C(=O)Nc1ccc(C(=O)Nc2cccc(Nc3ncc(Cl)c(-c4c[nH]c5ccccc45)n3)c2)cc1 [THZ1] shows maximum observed lethal fraction at minimum 0.08?
[reply] condition met

[ask] Would you say COc1cc([C@@H]2c3cc4c(cc3[C@@H](O[C@@H]3O[C@@H]5CO[C@@H](c6cccs6)O[C@H]5[C@H](O)[C@H]3O)[C@H]3COC(=O)[C@H]23)OCO4)cc(OC)c1O [Teniposide] shows maximum observed lethal fraction at minimum 0.08?
[reply] condition met

[ask] Would you say CC(C)[C@]12O[C@H]1[C@@H]1O[C@]13[C@]1(O[C@H]1C[C@H]1C4=C(CC[C@@]13C)C(=O)OC4)[C@@H]2O [Triptolide] shows maximum observed lethal fraction at minimum 0.08?
[reply] condition met

[ask] Would you say NC(=O)c1cccc2cn(-c3ccc([C@@H]4CCCNC4)cc3)nc12 [Niraparib] shows maximum observed lethal fraction at minimum 0.08?
[reply] condition not met
